- ASSAY_COMMENT: Micafungin concentrations in cerebrospinal fluid of infants with Candida meningitis (HPLC)
- Format: in vivo
- ASSAY_SETUP: human, CSF (ratio to plasma), iv, 10 mg/kg/day, Patient 1, dose 10 mg/kg/day iv; read-out: CSF/plasma ratio after 1 h
*1 amine or outer side, *2 acyl side, *3 side chain or, on linkers, in order; H or OH if unused. Where a SMILES comes first, the peptide text is derived from it. Bridges are numbered along the chain shown (N, C = ends). [ ]: non-standard residue; d: D form. The star is where a group is joined. hTyr(3S-OH,4S-OH,3'-OSO3H) = N[C@H](C(=O)O)[C@H](O)[C@@H](O)c1ccc(O)c(OS(=O)(=O)O)c1; Orn(4R-OH,5R-OH) = O=C([C@H](C[C@@H](O)[C@@H](O)N[*:3])N[*:1])[*:2]; Pro(3S-OH,4S-Me) = C[C@H]1CN[C@H](C(=O)O)[C@H]1O; X1 = CCCCCOc1ccc(-c2cc(-c3ccc(C(=O)*)cc3)no2)cc1; Gln(3R-OH) = NC(=O)C[C@@H](O)[C@H](N)C(=O)O; Hyp = O=C(O)[C@@H]1C[C@@H](O)CN1
PARAMETER_MEASURED: Kp at 1 h

>  <COMPOUND>
CCCCCOc1ccc(-c2cc(-c3ccc(C(=O)N[C@H]4C[C@@H](O)[C@@H](O)NC(=O)[C@@H]5[C@@H](O)[C@@H](C)CN5C(=O)[C@H]([C@H](O)CC(N)=O)NC(=O)[C@H]([C@H](O)[C@@H](O)c5ccc(O)c(OS(=O)(=O)O)c5)NC(=O)[C@@H]5C[C@@H](O)CN5C(=O)[C@H]([C@@H](C)O)NC4=O)cc3)no2)cc1 [micafungin] (X1-[Orn(4R-OH,5R-OH)]T[Hyp][hTyr(3S-OH,4S-OH,3'-OSO3H)][Gln(3R-OH)][Pro(3S-OH,4S-Me)]; lactam 1-C)

>  <PARAMETER_MEASURED>
Kp at 1 h

>  <OBSERVED_VALUE>
0.06

$$$$
